Origin of the recorded values: ChEMBL document CHEMBL4689842

- Tested on: HEK-293T
- assay overview: Multiplex assay against HEK293T
- Type: toxicity, cell-based
- conditions used: human, 12 h, 1 µM, compound concentration 1 uM, replicate 2
Here, each record is paired with measured Population Normal (%) data.
Provide only the numeric value, understood in %.

See these solved cases before continuing.
- chemical smiles: "O=C(Nc1ccc(Cl)cc1)Nc1cccc(-c2cccc(N3CCCC3)n2)c1"
  Population Normal (%): 94
- chemical smiles: "CCc1cccc(CC)c1NC(=O)c1nn(C)c2c1CCc1cnc(Nc3ccc(C(=O)NC4CCN(C)CC4)cc3OC(F)(F)F)nc1-2"
  Population Normal (%): 95
- chemical smiles: "Cc1cn(-c2cc(NC(=O)c3ccc(C)c(Nc4nccc(-c5cccnc5)n4)c3)cc(C(F)(F)F)c2)cn1"
  Population Normal (%): 93
- chemical smiles: "C=C1/C(=C\\C=C2/CCC[C@]3(C)[C@@H]([C@H](C)/C=C/[C@H](C)C(C)C)CC[C@@H]23)C[C@@H](O)C[C@@H]1O"
  Population Normal (%): 97
- chemical smiles: "Cl.Oc1ccc2c3c1O[C@H]1c4[nH]c5c(c4C[C@@]4(O)[C@@H](C2)N(CC2CC2)CC[C@]314)C[C@@]1(O)[C@H]2Cc3ccc(O)c4c3[C@@]1(CCN2CC1CC1)[C@H]5O4"
  Population Normal (%): 94
- chemical smiles: "Cl.O=c1c2cccn2c2ccccc2n1CCCN1CCC(c2ccc(Cl)cc2)CC1"
  Population Normal (%): 94

Field: next molecule
So what's the measured Population Normal (%) for this one? `C[C@H]1Oc2cc(cnc2N)-c2c(nn(C)c2C#N)CN(C)C(=O)c2ccc(F)cc21`
97
